Study target: K-Ras G13C (Homo sapiens (Human), UniProt P01116+P62937, G13C)
Sequence (P01116-2 other isoform, or with tags, fused parts or gaps G13C): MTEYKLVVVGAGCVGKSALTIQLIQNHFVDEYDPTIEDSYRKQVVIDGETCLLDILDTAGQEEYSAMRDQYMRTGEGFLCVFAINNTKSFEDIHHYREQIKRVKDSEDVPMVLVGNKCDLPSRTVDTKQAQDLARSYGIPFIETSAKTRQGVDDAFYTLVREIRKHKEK
Sequence (P62937 whole entry): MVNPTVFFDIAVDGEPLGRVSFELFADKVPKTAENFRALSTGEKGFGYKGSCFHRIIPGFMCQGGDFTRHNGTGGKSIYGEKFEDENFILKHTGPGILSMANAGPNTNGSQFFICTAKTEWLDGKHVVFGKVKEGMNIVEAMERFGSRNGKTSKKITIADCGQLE
Procedure details: Ras-Raf (BRAF RBD) disruption / FRET / MOA assay, KRAS G13C
Type: biochemical
Conditions: KRAS G13C; Ras-Raf disruption/FRET/MOA assay; read-out: IC50* KRAS G13C FRET data
pIC50: −log10 of the molar value.
Experimental endpoint: pIC50

# Compound, Study target, pIC50
measured = [
    ("C=CC(=O)N1CC[C@H](C(=O)N(C)[C@H](C(=O)N[C@H]2Cc3cc(O)cc(c3)-c3ccc4c(c3)c(c(-c3ccc(N5CCN(C)CC5)nc3)n4CC)CC(C)(C)COC(=O)[C@@H]3CCCN(N3)C2=O)C(C)C)C1", "K-Ras G13C (Homo sapiens (Human), UniProt P01116+P62937, G13C)", "5.00 to 6.00"),
    ("CCn1c(-c2cccnc2[C@H](C)OC)c2c3cc(ccc31)-c1cccc(c1)C[C@H](NC(=O)[C@H](C(C)C)N1CO[C@@]3(CCN(C(=O)C#CC(C)(C)N4CCC4)C3)C1=O)C(=O)N1CCC[C@H](N1)C(=O)OCC(C)(C)C2 (atropisomer, axis not shown)", "K-Ras G13C (Homo sapiens (Human), UniProt P01116+P62937, G13C)", "6.00 to 7.00"),
    ("C=CC(=O)N1CCOC2(CCN(C(=O)N(C)[C@H](C(=O)N[C@H]3Cc4cc(C(F)F)cc(n4)-c4ccc5c(c4)c(c(-c4cccnc4[C@H](C)OC)n5CC(F)(F)F)CC(C)(C)COC(=O)[C@@H]4CCCN(N4)C3=O)C(C)C)CC2)C1 (atropisomer, axis not shown)", "K-Ras G13C (Homo sapiens (Human), UniProt P01116+P62937, G13C)", "7.00 to 8.00"),
    ("C=CC(=O)N1CC[C@H](C(=O)N(C)[C@H](C(=O)N[C@H]2Cc3cccc(c3)-c3ccc4c(c3)c(c(-c3cccnc3[C@H](C)OC)n4CC(F)(F)F)CC(C)(C)COC(=O)[C@@H]3CCCN(N3)C2=O)C(C)C)C1 (atropisomer, axis not shown)", "K-Ras G13C (Homo sapiens (Human), UniProt P01116+P62937, G13C)", "6.00 to 7.00"),
    ("C=CC(=O)N1CC[C@@H](C(=O)N(C)[C@H](C(=O)N[C@H]2Cc3cccc(c3)-c3ccc4c(c3)c(c(-c3cccnc3[C@H](C)OC)n4CC)CC(C)(C)COC(=O)[C@@H]3CCCN(N3)C2=O)C(C)C)C1 (atropisomer, axis not shown)", "K-Ras G13C (Homo sapiens (Human), UniProt P01116+P62937, G13C)", "6.00 to 7.00"),
    ("C=CC(=O)NCCN1CCN(C(=O)N(C)[C@H](C(=O)N[C@H]2Cc3nc(cs3)-c3ccc4c(c3)c(c(-c3cccnc3[C@H](C)OC)n4CC)CC(C)(C)COC(=O)[C@@H]3CCCN(N3)C2=O)C(C)C)CC1 (atropisomer, axis not shown)", "K-Ras G13C (Homo sapiens (Human), UniProt P01116+P62937, G13C)", "6.00 to 7.00"),
]

Let me know recorded pIC50 for C=CC(=O)N1CCO[C@H]2CN(C(=O)N(C)[C@H](C(=O)N[C@H]3Cc4coc(n4)-c4ccc5c(c4)c(c(-c4cccnc4[C@H](C)OC)n5CC(F)(F)F)CC(C)(C)COC(=O)[C@@H]4CCCN(N4)C3=O)C(C)C)C[C@H]21 (atropisomer, axis not shown) , thanks. 7.00 to 8.00

Let me know recorded pIC50 for CCn1c(-c2cncnc2)c2c3cc(ccc31)-c1csc(n1)C[C@H](NC(=O)[C@H](C(C)C)N(C)C(=O)[C@H]1CCN(C(=O)C#CCN3CCOCC3)C1)C(=O)N1CCC[C@H](N1)C(=O)OCC(C)(C)C2 , thanks. < 5.00

Let me know recorded pIC50 for C=CC(=O)N1CCC(F)(C(=O)N(C)[C@H](C(=O)N[C@H]2Cc3cccc(c3)-c3ccc4c(c3)c(c(-c3cccnc3[C@H](C)OC)n4CC)CC(C)(C)COC(=O)[C@@H]3CCCN(N3)C2=O)C(C)C)CC1 (atropisomer, axis not shown) , thanks. 6.00 to 7.00
